Provide the recorded Ki for the entries that follow.
- experimental system: DPPIV (Homo sapiens (Human))
- Sequence (P27487 whole entry): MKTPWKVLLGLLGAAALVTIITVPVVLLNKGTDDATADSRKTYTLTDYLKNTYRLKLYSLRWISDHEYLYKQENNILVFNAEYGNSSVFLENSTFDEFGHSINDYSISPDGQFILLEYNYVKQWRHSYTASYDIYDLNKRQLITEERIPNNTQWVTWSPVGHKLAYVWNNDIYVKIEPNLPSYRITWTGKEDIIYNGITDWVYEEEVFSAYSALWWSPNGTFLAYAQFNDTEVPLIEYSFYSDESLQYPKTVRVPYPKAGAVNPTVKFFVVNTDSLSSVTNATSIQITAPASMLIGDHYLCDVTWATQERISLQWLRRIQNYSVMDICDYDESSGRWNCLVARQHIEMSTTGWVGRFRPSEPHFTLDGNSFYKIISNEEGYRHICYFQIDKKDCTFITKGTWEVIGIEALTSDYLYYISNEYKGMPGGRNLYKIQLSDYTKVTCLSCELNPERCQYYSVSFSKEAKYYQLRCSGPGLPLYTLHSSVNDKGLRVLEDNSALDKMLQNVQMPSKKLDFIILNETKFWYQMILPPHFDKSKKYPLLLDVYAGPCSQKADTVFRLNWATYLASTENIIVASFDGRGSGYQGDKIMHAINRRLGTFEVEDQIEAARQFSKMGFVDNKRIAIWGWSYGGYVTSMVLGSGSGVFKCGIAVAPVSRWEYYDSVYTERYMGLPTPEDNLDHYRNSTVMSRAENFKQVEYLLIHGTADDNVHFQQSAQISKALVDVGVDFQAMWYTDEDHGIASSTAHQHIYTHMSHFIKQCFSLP
- procedure summary: DPPIV inhibition assay (recombinant enzyme, H-Gly-Pro-AMC substrate)
Report as a plain number; the unit µM is understood.

Could you tell me which Ki is on file for "N#C[C@@H]1CCCN1C(=O)CNC(=O)c1ccnc2ccc(OCCCNC(=O)CCc3cn(CCOCCOCCOCCC(=O)N[C@@H](CCCCNC(=O)CN4CCN(CC(=O)O)CCN(CC(=O)O)CC4)C(=O)NCCCCC(=O)N(CCCC[C@H](NC(=O)N[C@@H](CCC(=O)O)C(=O)O)C(=O)O)Cc4ccc(Br)cc4)nn3)cc12" ? 1.76

Could you do the same for "N#C[C@@H]1CCCN1C(=O)CNC(=O)c1ccnc2ccc(OCCCNC(=O)CCc3cn(CCCC[C@H](NC(=O)CN4CCN(CC(=O)O)CCN(CC(=O)O)CC4)C(=O)NCCCCCC(=O)N(CCCC[C@H](NC(=O)N[C@@H](CCC(=O)O)C(=O)O)C(=O)O)Cc4ccc(Br)cc4)nn3)cc12" , please? 3.04

Could you do the same for N#C[C@@H]1CC(F)(F)CN1C(=O)CNC(=O)c1ccnc2ccc(OCCCN3CCN(C(=O)CN4CCN(CC(=O)O)CCN(CC(=O)O)CCN(CC(=O)O)CC4)CC3)cc12 [FAPI-04, reference compound] , please? 0.8

Data credit: patent US20240382629A1
